Recorded IC50 values for a group of compounds are listed next.
measured_target: PIM1 (Homo sapiens (Human), UniProt P11309)
Sequence (P11309 whole entry, species assumed): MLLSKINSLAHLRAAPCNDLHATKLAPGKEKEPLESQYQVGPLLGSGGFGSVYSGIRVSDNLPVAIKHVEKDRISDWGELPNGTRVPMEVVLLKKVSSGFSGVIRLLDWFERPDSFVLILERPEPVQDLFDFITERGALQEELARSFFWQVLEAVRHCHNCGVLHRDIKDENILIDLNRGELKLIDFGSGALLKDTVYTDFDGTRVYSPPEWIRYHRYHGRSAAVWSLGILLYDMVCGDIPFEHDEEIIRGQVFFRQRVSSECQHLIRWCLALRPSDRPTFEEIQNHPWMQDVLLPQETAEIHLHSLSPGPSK
method_description: Pim1 ATP depletion assay
Type: biochemical
condition_label: 20 μM ATP, 40 μM BAD peptide

{"smiles_structure": "N[C@H]1CCCN(c2ccncc2Nc2cccc3cnc(-c4ccccc4F)nc23)C1", "IC50 (µM)": 0.029}
{"smiles_structure": "C[C@@H]1C[C@H](N)CN(c2ccncc2Nc2cccc3cnc(-c4c(F)cccc4F)nc23)C1", "IC50 (µM)": 0.018}
{"smiles_structure": "N[C@@H]1CN(c2ccncc2Nc2cccc3cnc(-c4c(F)cccc4F)nc23)CC[C@H]1O", "IC50 (µM)": 0.184}
{"smiles_structure": "N[C@H]1CCCN(c2ccncc2Nc2cccc3cnc(-c4nccs4)nc23)C1", "IC50 (µM)": 0.411}
{"smiles_structure": "N[C@H]1CN(c2ccncc2Nc2cccc3cnc(-c4c(F)cccc4F)nc23)CC[C@@H]1F", "IC50 (µM)": 4.7}
